System: Rattus norvegicus
PROTOCOL DETAILS: Biodistribution in blood of immature female rat after 5 hour administration of 3 micro Ci (111 kBq) in the absence of 60 microg estradiol
Type: ADME, organism-based
ASSAY CONDITIONS: in vivo
METRIC: ID/g (%)
Only the number, expressed in %, is required.

Query "C[C@]12CC[C@@H]3c4ccc(O)c(F)c4CC[C@H]3[C@@H]1CC[C@@]2(O)/C=C/I" yields ID/g of 0.26

Query "C[C@@H]1Cc2cc(O)c(F)cc2[C@H]2CC[C@@]3(C)[C@@H](CC[C@@]3(O)/C=C\I)[C@H]12" yields ID/g of 0.33

Query "C[C@]12CC[C@@H]3c4cc(F)c(O)cc4CC[C@H]3[C@@H]1CC[C@@]2(O)/C=C/I" yields ID/g of 0.29

Query "CO[C@H]1C[C@@]2(C)[C@@H](CC[C@@]2(O)/C=C\I)[C@@H]2CCc3c(ccc(O)c3F)[C@H]21" yields ID/g of 0.51

Query "CO[C@H]1C[C@@]2(C)[C@@H](CC[C@@]2(O)/C=C/I)[C@@H]2CCc3cc(O)c(F)cc3[C@H]21" yields ID/g of 0.32

Query "C[C@@H]1Cc2cc(O)c(F)cc2[C@H]2CC[C@@]3(C)[C@@H](CC[C@@]3(O)/C=C/I)[C@H]12" yields ID/g of 0.17

Query "C[C@@H]1Cc2c(ccc(O)c2F)[C@H]2CC[C@@]3(C)[C@@H](CC[C@@]3(O)/C=C/I)[C@H]12" yields ID/g of 0.39

Query "C[C@@H]1Cc2c(ccc(O)c2F)[C@H]2CC[C@@]3(C)[C@@H](CC[C@@]3(O)/C=C\I)[C@H]12" yields ID/g of 0.36

Query "C[C@]12CC[C@@H]3c4cc(F)c(O)cc4CC[C@H]3[C@@H]1CC[C@@]2(O)/C=C\I" yields ID/g of 0.3

Query "C[C@]12CC[C@@H]3c4ccc(O)c(F)c4CC[C@H]3[C@@H]1CC[C@@]2(O)/C=C\I" yields ID/g of 0.47
